target: human IDO1 (Homo sapiens); test: IDO inhibition assay in HEK293 cells stably expressing human IDO1 (kynurenine production, Ehrlich reagent, absorbance 490 nm); conditions: 20 hours incubation with compound, 500 nM reference standard = 100% inhibition, read-out: IDO1 HEK Human IC50
Sequence (P14902 whole entry): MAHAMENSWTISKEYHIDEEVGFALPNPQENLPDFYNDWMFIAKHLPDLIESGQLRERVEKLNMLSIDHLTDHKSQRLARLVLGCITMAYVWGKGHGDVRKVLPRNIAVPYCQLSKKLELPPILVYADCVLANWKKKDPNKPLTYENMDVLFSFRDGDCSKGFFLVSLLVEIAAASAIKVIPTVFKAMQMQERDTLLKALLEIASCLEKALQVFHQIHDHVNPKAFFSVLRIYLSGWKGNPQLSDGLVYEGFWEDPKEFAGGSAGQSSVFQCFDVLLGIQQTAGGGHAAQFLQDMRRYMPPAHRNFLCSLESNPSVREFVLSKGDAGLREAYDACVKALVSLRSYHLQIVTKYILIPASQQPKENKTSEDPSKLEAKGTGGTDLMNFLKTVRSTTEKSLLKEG
Structures can show the parent of a compound that is named as a salt.
quantity.kind: IC50 (nM)

molecule	quantity.kind	scale.unit	number
Cc1ccc(CC(=O)Nc2cc(-c3ccccc3-c3nnn[nH]3)nc(N(CC(C)C)C3CCCCC3)n2)cc1	IC50	nM	26.3
CCCN(Cc1ccccc1)c1cc(NC(=O)Nc2ccc(C)cc2)cc(-c2ccccc2S(=O)(=O)NC(=O)c2ccccc2)n1	IC50	nM	4100
Cc1ccc(Nc2cc(-c3ccccc3-c3nnn[nH]3)nc(N(Cc3ccc(F)cc3)CC(C)C)c2)nn1 [Example 41, TFA]	IC50	nM	563
CCCN(Cc1ccccc1)c1cc(NC(=O)Nc2ccc(C(F)(F)F)cc2)cc(-c2ccccc2-c2nnn[nH]2)n1	IC50	nM	41.2
Cc1cnc(Nc2cc(-c3ccccc3-c3nnn[nH]3)nc(N(Cc3ccccc3)CC(C)C)c2)nc1	IC50	nM	60.3
CCCN(Cc1ccccc1)c1cc(NC(=O)Cc2cccs2)cc(-c2ccccc2-c2nn[nH]n2)n1	IC50	nM	323
CCN(Cc1ccccc1)c1nc(NC(=O)Nc2ccc(C)cc2)cc(-c2ccccc2-c2nnn[nH]2)n1	IC50	nM	952

###

biological target: human IDO1 (Homo sapiens); construct: expressed in transfected cells; test: IDO inhibition assay in HEK293 cells stably expressing human IDO1 (kynurenine production, Ehrlich reagent, absorbance 490 nm); format: cell-based; conditions: 20 hours incubation with compound, 500 nM reference standard = 100% inhibition, read-out: IDO1 HEK Human IC50
Structures can show the parent of a compound that is named as a salt.
Response field label takes label 1 when IC50 is strictly below 300 nM and label 0 in all other cases.

compound	label.class
CC(C)CN(Cc1ccccc1)c1cc(Nc2cccc(C#N)c2)cc(-c2ccccc2-c2nnn[nH]2)n1	label 1
CC(C)CN(Cc1ccccc1)c1cc(Nc2nc(C(F)(F)F)ccc2F)cc(-c2ccccc2-c2nnn[nH]2)n1	label 1
CC(C)CN(Cc1ccccc1)c1cc(Nc2ccnc3ccnn23)cc(-c2ccccc2-c2nnn[nH]2)n1	label 1
CCCN(Cc1ccccc1)c1cc(NC(=O)Cc2ccc(C#N)cc2)cc(-c2ccccc2-c2nn[nH]n2)n1 [Example 290]	label 0
CCCN(Cc1ccccc1)c1cc(NC(=O)CC2CCC(C)CC2)cc(-c2ccccc2-c2nnn[nH]2)n1 (stereo not drawn)	label 0
CCC(CC(=O)O)c1cc(Nc2ccc3nc(C)sc3c2)cc(N(Cc2ccc(F)cc2)CC(C)C)n1 (single isomer, unassigned)	label 0
Cc1ccc(CC(=O)Nc2cc(-c3ccccc3-c3nnn[nH]3)nc(N3CC(C)OC(C)C3)c2)cc1 (stereo not drawn)	label 0
CCCN(CC1CC1)c1nc(NC(=O)Nc2ccc(F)cc2)cc(-c2ccccc2-c2nnn[nH]2)n1 [Example 65, TFA]	label 0
CCCCNC(=O)Nc1cc(-c2ccccc2-c2nnn[nH]2)nc(N(CCC)Cc2ccccc2)c1	label 0
CCCN(Cc1ccccc1)c1cc(NC(=O)Cc2ccc(C)cc2)cc(-c2ccccc2-c2nnn[nH]2)n1	label 1
CC(C)CN(CC(C)C)c1cc(NC(=O)Nc2ccccc2F)cc(-c2cc(F)ccc2C(=O)O)n1	label 0
CC(C)CN(Cc1ccc(F)cc1)c1cc(Nc2ccc(F)cc2)cc(-c2ccccc2-c2nnn[nH]2)n1	label 1
Cc1ccc(CC(=O)Nc2cc(-c3ccccc3-c3nnn[nH]3)nc(N3CCCC3C)c2)cc1 (stereo not drawn)	label 0
CC(C)CN(Cc1ccccc1)c1cc(Nc2ccccc2C#N)cc(-c2ccccc2-c2nnn[nH]2)n1	label 1
Cc1cc(F)cnc1Nc1cc(-c2ccccc2-c2nnn[nH]2)nc(N(Cc2ccccc2)CC(C)C)c1 [Example 183]	label 1

Source listed as patent US12059420B2.
